Data origin: ChEMBL document CHEMBL4431364

Assign inhibition to each entry below.
target: UniProt Q13822; experiment: Inhibition of C-terminal FLAG tagged human recombinant ATX expressed in insect sf9 cells at 10 uM using FS-3 as substrate measured every 2 mins for 60 mins by FRET assay
Answers are plain numbers, in %.

Reference set (6 entries):
molecule | unit.label | measurement
O=C(COc1ccccc1Cl)N1CCN(c2ccc([N+](=O)[O-])cc2)CC1 | % | 46.1
CCN1CCN(c2cc(C)c3ccc(Cl)cc3n2)CC1 | % | 14.2
O=C(O)c1ccccc1N1CCN(C(=O)COc2ccc(Cl)cc2Cl)CC1 | % | 27.6
O=C(O)c1cccc(N2CCN(C(=O)COc3ccc(Cl)cc3Cl)CC2)c1 | % | 76.1
O=C(COc1ccc(F)cc1)N1CCN(c2cccc([N+](=O)[O-])c2)CC1 | % | 48.1
O=C(O)c1ccc(N2CCN(C(=O)COc3ccccc3Cl)CC2)cc1 | % | 27.6

Each of the following entries comes with a recorded value; kindly state inhibition for each.
1. O=C(COc1ccccc1Cl)N1CCN(c2cccc([N+](=O)[O-])c2)CC1
2. O=C(COc1ccc(C(F)(F)F)cc1)N1CCN(c2ccc([N+](=O)[O-])cc2)CC1

1: 41.9; 2: 50.2

For every item in the list below, what is its measured inhibition?
1. O=C(COc1ccccc1C(F)(F)F)N1CCN(c2cccc([N+](=O)[O-])c2)CC1
2. O=C(O)c1cccc(N2CCN(C(=O)COc3ccccc3Cl)CC2)c1
3. Cc1cc(NC(=O)CSc2nc3sc4c(c3c(=O)[nH]2)CCC(C)C4)no1 (stereo not drawn)
4. N#C/C(=C\c1ccc(-c2cc([N+](=O)[O-])ccc2Cl)o1)C(=O)Nc1ccccc1C(=O)O
5. O=S(=O)(c1cc(-c2ccon2)cs1)N1CCN(Cc2ccc3c(c2)OCO3)CC1
6. CON1CC/C(=C\c2cc(C(C)(C)C)c3c(c2)C(C)(C)CO3)C1=O
7. O=C(COc1cccc(Cl)c1)N1CCN(c2cccc([N+](=O)[O-])c2)CC1

56.4
42
11
3.59
13.4
30.3
62.4

Would you mind giving inhibition for every molecule in the list below?
1. CC(C)(C)c1ccc(NC(=O)COC(=O)c2ccc([N+](=O)[O-])s2)cc1
2. CSc1cccc2c(C)cc(N3CCN(c4ccc(F)cc4)CC3)nc12

[10.7, 9.17]

State the recorded inhibition for every item in the following list.
1. Cc1cc(NC(=O)CSc2nc3sc4c(c3c(=O)[nH]2)CCC(C(C)(C)C)C4)no1 (stereo not drawn)
2. C=C(C)c1cccc(C(C)(C)NC(=O)N2CCN(C(=O)OCC)CC2)c1

15.4
10.5

* * *

target: Autotaxin (Homo sapiens, UniProt Q13822); assay: Inhibition of C-terminal FLAG tagged human recombinant ATX expressed in insect sf9 cells at 10 uM using FS-3 as substrate measured every 2 mins for 60 mins by FRET assay
reported.property: inhibition
Lab note: write values as number then unit, every time.

molecule | inhibition
O=C(O)c1cccc(N2CCN(C(=O)COc3cccc(C(F)(F)F)c3)CC2)c1 | 67.1%
O=C(O)c1ccc(N2CCN(C(=O)COc3ccc(F)cc3)CC2)cc1 | 0.9%
O=C(O)c1ccc(N2CCN(C(=O)COc3cccc(C(F)(F)F)c3)CC2)cc1 | 43%
Cc1cc(C(F)(F)F)nc2sc3c(c12)NC(c1c(Br)cnn1C)NC3=O (stereo not drawn) | -1.36%
COc1ccc(C(=O)Oc2c(Br)cc(Br)c3cccnc23)cc1 | 0.32%
O=C(O)c1ccc(N2CCN(C(=O)COc3ccc(Cl)cc3)CC2)cc1 | 50.8%
Cc1oc(C(C)(C)C)cc1C(=O)NCCNC(=O)c1cc(C(C)(C)C)oc1C | 7.68%
CCOc1ccc(N2C(=O)/C(=C\c3sccc3C)C(C(=O)OC)=C2C)cc1 | 4.09%

Please go through the list and note inhibition for each molecule.
1. O=C(O)c1ccccc1N1CCN(C(=O)COc2cccc(F)c2)CC1
2. CCCCOCCCNc1cc(-c2cccc(C)c2)ncn1
3. O=C(CCCc1ccc([N+](=O)[O-])cc1)N1CCN(c2ccccc2F)CC1
4. O=C(COc1ccccc1F)N1CCN(c2cccc([N+](=O)[O-])c2)CC1
5. O=C(COc1ccc(F)cc1)N1CCN(c2ccc([N+](=O)[O-])cc2)CC1
6. COc1ccc(C2OCC3OC(OC)C(O)C(O)C3O2)cc1OCc1ccccc1 (stereo not drawn)
7. O=C(COc1ccccc1F)N1CCN(c2ccc([N+](=O)[O-])cc2)CC1
8. O=S(=O)(c1ccc(OC(F)(F)F)cc1)N1CCC(N2CCN(c3ccccc3F)CC2)CC1

-5.5%
9.16%
25.6%
15.2%
65.4%
-4.83%
35.2%
8.43%

* * *

For each entry below, report its inhibition value.
molecular target: UniProtKB Q13822; experiment: Inhibition of C-terminal FLAG tagged human recombinant ATX expressed in insect sf9 cells at 10 uM using pNP-TMP as substrate measured every 2 mins for 60 mins by absorbance

Record excerpt, results attached:
smiles.structure | inhibition
O=C(O)c1ccc(N2CCN(C(=O)COc3ccccc3Cl)CC2)cc1 | 7.3%
O=C(COc1cccc(C(F)(F)F)c1)N1CCN(c2ccc([N+](=O)[O-])cc2)CC1 | 4.1%
O=C(O)c1ccc(N2CCN(C(=O)COc3ccc(F)cc3)CC2)cc1 | -6.5%
O=C(COc1ccccc1F)N1CCN(c2ccccc2[N+](=O)[O-])CC1 | -1.8%
O=C(COc1ccc(F)cc1)N1CCN(c2cccc([N+](=O)[O-])c2)CC1 | 8.9%

# map each compound to its inhibition
1. O=C(O)c1cccc(N2CCN(C(=O)COc3ccc(Cl)cc3)CC2)c1
2. O=C(O)c1cccc(N2CCN(C(=O)COc3ccccc3Cl)CC2)c1
3. O=C(O)c1ccc(N2CCN(C(=O)COc3ccc(Cl)cc3Cl)CC2)cc1
4. O=C(COc1ccccc1C(F)(F)F)N1CCN(c2cccc([N+](=O)[O-])c2)CC1
5. O=C(COc1cccc(Cl)c1)N1CCN(c2cccc([N+](=O)[O-])c2)CC1
6. O=C(O)c1cccc(N2CCN(C(=O)COc3cccc(F)c3)CC2)c1

56.6%
11.5%
9.7%
7.7%
17.1%
30.2%

I need inhibition for every entry listed below, if you could help.
1. O=C(COc1cccc(C(F)(F)F)c1)N1CCN(c2ccccc2[N+](=O)[O-])CC1
2. O=C(O)c1ccccc1N1CCN(C(=O)COc2cccc(C(F)(F)F)c2)CC1
3. O=C(O)c1ccc(N2CCN(C(=O)COc3ccc(C(F)(F)F)cc3)CC2)cc1
4. O=C(O)c1cccc(N2CCN(C(=O)COc3cccc(C(F)(F)F)c3)CC2)c1

35.4%
-3.5%
7.9%
37.9%

* * *

target: UniProtKB Q13822; experiment: Inhibition of C-terminal FLAG tagged human recombinant ATX expressed in insect sf9 cells at 10 uM using FS-3 as substrate measured every 2 mins for 60 mins by FRET assay
I'd appreciate it if you could supply inhibition values for the items below.
Value and unit, in that order.

Solved entries (count: 5):
smiles.structure | study.target | inhibition
O=C(O)c1cccc(N2CCN(C(=O)COc3cc(Cl)cc(Cl)c3)CC2)c1 | UniProtKB Q13822 | 54.6%
O=C(O)c1ccc(N2CCN(C(=O)COc3ccc(Cl)cc3Cl)CC2)cc1 | UniProtKB Q13822 | 23.9%
O=C(O)c1ccc(N2CCN(C(=O)COc3ccc(C(F)(F)F)cc3)CC2)cc1 | UniProtKB Q13822 | 46%
O=C(O)c1ccc(N2CCN(C(=O)COc3cccc(Cl)c3)CC2)cc1 | UniProtKB Q13822 | 56%
O=C(COc1cccc(Cl)c1)N1CCN(c2ccccc2[N+](=O)[O-])CC1 | UniProtKB Q13822 | 42.7%

Continue with the next compound.
Reported inhibition of `O=C(CCCOc1ccc(Cl)cc1Cl)N1CCN(c2ccc([N+](=O)[O-])cc2)CC1` : 65.5%

* * *

molecular target: Autotaxin (Homo sapiens); assay: Inhibition of C-terminal FLAG tagged human recombinant ATX expressed in insect sf9 cells at 10 uM using FS-3 as substrate measured every 2 mins for 60 mins by FRET assay
Outcome label depends on inhibition relative to 50%: at/above gives YES, below gives NO.

Answered examples (4):
molecule | group.label
O=C(O)c1ccccc1N1CCN(C(=O)COc2cccc(Cl)c2)CC1 | NO
O=C(COc1cccc(C(F)(F)F)c1)N1CCN(c2ccc([N+](=O)[O-])cc2)CC1 | YES
O=C(O)c1ccc(N2CCN(C(=O)COc3ccccc3F)CC2)cc1 | NO
O=C(COc1cccc(C(F)(F)F)c1)N1CCN(c2cccc([N+](=O)[O-])c2)CC1 | YES

Hello, I need to know if `Cn1ncc2c1ncn1nc(-c3ccc(Cn4cc(Cl)cn4)o3)nc21` has measured inhibition not below 50%. Thanks!
NO

Evaluate `O=C(COc1cccc(F)c1)N1CCN(c2ccc([N+](=O)[O-])cc2)CC1` : inhibition at minimum 50%?
YES

Can Clc1ccc(Cl)c2c1CC(N1CCN(c3ncccn3)CC1)S2 (centres undefined) be said to have inhibition at or above 50%?
NO
